Measured values drawn from ChEMBL document CHEMBL1201862 for this set.

Let's look at some compounds and their measured GI50.
Test system: DMS-273
Assay: NCI tumour cell line growth inhibition, 48 h
Calls of active or inactive are those of the source. Cut-off read from the data, not from the text of the source: active = GI50 up to about 1.1 µM and inactive = higher.

# example entries with known answers
[
  {
    "Compound": "CN(C)CCCSc1c2ccccc2nc2cc(NCC(=O)Nc3ccccc3-c3ccccc3NC(=O)CNc3ccc4c(SCCCN(C)C)c5ccccc5nc4c3)ccc12",
    "Result": "> 100 µM (inactive)"
  },
  {
    "Compound": "Cc1c(Cl)cccc1NC(=O)C(=O)C1C(=O)CC(C)(C)CC1=O",
    "Result": "> 100 µM (inactive)"
  },
  {
    "Compound": "Nc1c(C(=O)Nc2ccccc2)[n+]([O-])c2ccccc2[n+]1[O-]",
    "Result": "20.6 µM (inactive)"
  },
  {
    "Compound": "Cc1cc(N(CCC#N)CCC#N)ccc1/C=C(\\NC(=O)/C=C/c1ccccc1)NC(=O)Nc1ccccc1C",
    "Result": "> 100 µM (inactive)"
  },
  {
    "Compound": "Cc1cc(C)nc(NS(=O)(=O)c2ccc(Nc3c4ccccc4nc4c(C(=O)N5CCN(CCOS(C)(=O)=O)CC5)ccc(Cl)c34)cc2)n1",
    "Result": "> 100 µM (inactive)"
  }
]

For the compound Cn1c2c(c3ccccc31)C1CCCCC1C1C(=O)NC(=O)C21 (stereo not drawn) , give its measured GI50 value. > 10 µM (inactive)

For the compound COc1ccc(-c2cc(-c3ccccc3)c(C#N)c(=O)[nH]2)cc1 , give its measured GI50 value. > 100 µM (inactive)

For the compound Cn1cnc2nc(Cl)nc(NC(C)(C)C(C)(C)O)c21 , give its measured GI50 value. > 100 µM (inactive)

For the compound CCN(CC)CCSc1nc2cccc([N+](=O)[O-])c2[nH]1 , give its measured GI50 value. > 100 µM (inactive)

For the compound CP1(=O)CCCCC1 , give its measured GI50 value. > 100 µM (inactive)

For the compound Cc1ccc(C)c(NC(=O)c2cc(-c3ccc([N+](=O)[O-])cc3)nc(N)n2)c1 , give its measured GI50 value. > 100 µM (inactive)

For the compound CCC(=C(c1ccc(OCc2ccccc2)cc1)c1ccc(OCc2ccccc2)cc1)c1ccc(OC)cc1 , give its measured GI50 value. > 100 µM (inactive)

For the compound OC12c3ccccc3C1CCCCC2N1CCCC1 (stereo not drawn) , give its measured GI50 value. > 100 µM (inactive)

For the compound O=C(C(=O)c1cc2ccccc2[nH]1)c1cc2ccccc2[nH]1 , give its measured GI50 value. > 318 µM (inactive)

For the compound Cn1c(=O)c2[nH]cnc2n(CC(N)=O)c1=O , give its measured GI50 value. > 100 µM (inactive)

For the compound CN1CCN(CCNc2ccc(CO)c3sc4ccccc4c(=O)c23)CC1 , give its measured GI50 value. 3.21 µM (inactive)

For the compound N#CC(/C(=N/NC(=N)N)C(=O)Nc1ccccc1[N+](=O)[O-])c1nc(-c2ccc([N+](=O)[O-])cc2)cs1 (stereo not drawn) , give its measured GI50 value. > 100 µM (inactive)

For the compound C=CC(=O)Nc1ccccc1CC(c1c[nH]c2ccccc12)c1c[nH]c2ccccc12 , give its measured GI50 value. 17.7 µM (inactive)

For the compound C[C@]12CCC(=O)C=C1CC[C@@H]1[C@@H]2CC[C@]2(C)C(=O)NC(=O)C[C@@H]12 , give its measured GI50 value. > 100 µM (inactive)

For the compound C[C@@]12CC[C@H]3[C@@H]4CCC(=O)N[C@@]4(C)CC[C@@H]3[C@@]1(C)CC[C@H](OC(=O)Cc1ccc(N(CCCl)CCCl)cc1)C2 , give its measured GI50 value. 15.2 µM (inactive)

For the compound C=C(CO)CC(/C=C(\C)CC/C=C(\C)CCl)OC(C)=O (stereo not drawn) , give its measured GI50 value. > 100 µM (inactive)

For the compound O=C(O)CCC(=O)N1c2ccccc2CC1c1c[nH]c2ccccc12 (stereo not drawn) , give its measured GI50 value. > 100 µM (inactive)

For the compound C[C@@H](NC1CCC[C@H]1O)c1ccccc1 (stereo partly drawn) , give its measured GI50 value. > 100 µM (inactive)

* * *

Test system: SNB-19
Assay: NCI tumour cell line growth inhibition, 48 h
The source made the active and inactive calls. Rule as the data show it: active = GI50 up to about 1.1 µM and inactive = higher. Residues, ends and D or L forms follow the SMILES beside them. *: point of attachment. Boc = CC(C)(C)OC(=O)*; OBn = c1ccc(CO*)cc1
Property Label: GI50

# example entries with known answers
[
  {
    "Molecule": "COC(=O)/C(=C\\c1ccc(N(CCC#N)CCC#N)cc1)NC(=O)c1cc([N+](=O)[O-])ccc1Cl",
    "Experimental Target": "SNB-19",
    "GI50": "> 100 µM (inactive)"
  },
  {
    "Molecule": "C/C(=N\\NC(N)=O)C(CN(C)C)C(c1ccccc1)c1c(O)c2ccccc2oc1=O (stereo not given)",
    "Experimental Target": "SNB-19",
    "GI50": "> 100 µM (inactive)"
  },
  {
    "Molecule": "COc1ccc(-c2cc(-c3ccccc3)c(C#N)c(=O)[nH]2)cc1",
    "Experimental Target": "SNB-19",
    "GI50": "> 100 µM (inactive)"
  },
  {
    "Molecule": "c1cncc(C(Nc2cccc3cccnc23)Nc2cccc3cccnc23)c1",
    "Experimental Target": "SNB-19",
    "GI50": "> 100 µM (inactive)"
  }
]

Please examine the following record next.
For the molecule CC(C)CC(NC(=O)OC(C)(C)C)C(=O)NC(CC(=O)OCc1ccccc1)C(=O)OCc1ccccc1 (stereo not drawn) (Boc-Leu-Asp(OBn)-OBn; configuration not given here) , give its measured GI50 value. 29.4 µM (inactive)

* * *

Tested on: A549
Experiment: NCI tumour cell line growth inhibition, 48 h
Active and inactive are the calls of the source. No stated cut-off is given here; in the data, active = GI50 up to about 1.1 µM and inactive = higher.
Property Label: GI50

# example entries with known answers
[
  {
    "Compound": "CCOC(=O)/C=C(\\N=P(c1ccccc1)(c1ccccc1)c1ccccc1)C(F)(F)C(F)(F)C(F)(F)C(F)(F)C(F)(F)F",
    "Experimental Target": "A549",
    "GI50": "> 100 µM (inactive)"
  },
  {
    "Compound": "O=c1c2cccc3cccc(c4oc5c6cccc7cccc(c(=O)c5c14)c76)c32",
    "Experimental Target": "A549",
    "GI50": "2.06 µM (inactive)"
  },
  {
    "Compound": "Nc1nc(Cl)c2ncn(Cc3ccccc3CCl)c2n1",
    "Experimental Target": "A549",
    "GI50": "22 µM (inactive)"
  },
  {
    "Compound": "C/C(CC(=O)Nc1ccc([N+](=O)[O-])cc1)=N\\Nc1ccc([N+](=O)[O-])cc1[N+](=O)[O-]",
    "Experimental Target": "A549",
    "GI50": "44.7 µM (inactive)"
  },
  {
    "Compound": "Cc1nc2cc([N+](=O)[O-])ccc2c(NCCCN(C)C)c1C",
    "Experimental Target": "A549",
    "GI50": "6.21 µM (inactive)"
  }
]

Provide the reported GI50 (system: A549) for O=C1c2ccccc2S(=O)(=O)c2cc(-c3nn[nH]n3)ccc21 [DOXANTRAZOLE] > 100 µM (inactive)

Provide the reported GI50 (system: A549) for CC(=O)O[C@H]1C(=O)[C@@]2(C)[C@H]([C@H](OC(=O)c3ccc([N+](=O)[O-])cc3)[C@]3(O)C[C@H](OC(=O)[C@H](O)[C@@H](NC(=O)c4ccccc4)c4ccccc4)C(C)=C1C3(C)C)[C@]1(OC(C)=O)CO[C@@H]1C[C@@H]2O > 25 µM (inactive)

Provide the reported GI50 (system: A549) for CC(=O)O[C@H]1CC[C@@]2(C)C(=C[C@H](c3ccc(O)cc3)[C@H]3[C@@H]4CC[C@H](OC(C)=O)[C@@]4(C)CC[C@@H]32)C1 16.3 µM (inactive)

Provide the reported GI50 (system: A549) for CCSc1n/c(=C\c2ccco2)c2nnnn12 > 100 µM (inactive)

Provide the reported GI50 (system: A549) for Cc1ccc2nc(C(=O)O)c(=O)[nH]c2c1 > 100 µM (inactive)

Provide the reported GI50 (system: A549) for Cc1ccc(C)c(NC(=O)c2cc(-c3ccc([N+](=O)[O-])cc3)nc(N)n2)c1 > 100 µM (inactive)

* * *

Test system: RXF 393
Test: NCI tumour cell line growth inhibition, 48 h
Calls of active or inactive are those of the source. Cut-off read from the data, not from the text of the source: active = GI50 up to about 1.1 µM and inactive = higher.
Property Label: GI50

# example entries with known answers
[
  {
    "Compound": "Cc1nc2ccccc2c(=O)n1/N=C(\\N=N\\c1cccc(Cl)c1)c1ccccc1Cl",
    "Result": "21.7 µM (inactive)"
  },
  {
    "Compound": "CC(C)CC1c2[nH]c3ccccc3c2C[C@H]2C(=O)NC(Cc3c[nH]c4ccccc34)C(=O)N12 (some centres undefined)",
    "Result": "7.87 µM (inactive)"
  },
  {
    "Compound": "CN(C)CCCn1c(Cn2nc3ccccc3n2)nc2cc(C(F)(F)F)ccc21",
    "Result": "22.1 µM (inactive)"
  }
]

For the compound C=C1c2nc3ccccc3n2C=C(c2ccc(Cl)cc2)N1c1ccccc1 , give its measured GI50 value. 16.1 µM (inactive)

For the compound COc1cccc(-c2cc(C(=O)Nc3ccc(Cl)cc3)nc(N)n2)c1 , give its measured GI50 value. 39.4 µM (inactive)

For the compound CC(C)C1CO[C@]2(C)CCC(=O)N12 (some centres undefined) , give its measured GI50 value. > 100 µM (inactive)

For the compound CN(C)CCNC(=O)c1cccc2nc3c(ccc4ccccc43)nc12 , give its measured GI50 value. 3.2 µM (inactive)
